tested on: Rattus norvegicus; assay: Toxicity in rat assessed as time spent on rotarod at 40 mg/kg, ip by rotarod test; type: organism-based; design: dose 40 mg/kg, route intraperitoneal; details: in vivo
Reported property: Time (s)
Value expressed in s; do not type the unit.

Some solved entries appear below for comparison.
Compound	Target entity	Reported property	Result
Oc1ccc(/C=N/c2nnc(Cn3c4ccccc4c4ccccc43)o2)cc1	Rattus norvegicus	Time	116.4
CN(C)c1ccc(C2SCC(=O)N2c2nnc(Cn3c4ccccc4c4ccccc43)o2)cc1 (configuration not stated)	Rattus norvegicus	Time	104.2
COc1cc(C2SCC(=O)N2c2nnc(Cn3c4ccccc4c4ccccc43)s2)ccc1O (configuration not stated)	Rattus norvegicus	Time	98.8
Oc1ccc(/C=N/c2nnc(Cn3c4ccccc4c4ccccc43)s2)cc1	Rattus norvegicus	Time	108.8
CN(C)c1ccc(/C=N/c2nnc(Cn3c4ccccc4c4ccccc43)s2)cc1	Rattus norvegicus	Time	110.2
O=C1C(Cl)C(c2ccc(O)cc2)N1c1nnc(Cn2c3ccccc3c3ccccc32)s1 (configuration not stated)	Rattus norvegicus	Time	102

From here, focus on the item given below.
Req: Answer with the recorded Time of Oc1ccc(/C=N/c2nnc(Cn3c4ccccc4c4ccccc43)o2)c(O)c1 only.
Resp: 114.8
